Values compiled from ChEMBL document CHEMBL1144659.

# IC50 annotations
# test-summary: Antagonist activity at AMPA receptor in rat […] granule cells assessed as inhibition of kainate-induced calcium uptake after 30 mins
# Format: functional, cell-based
# settings: 0.5 h

CC1C(=O)NN=C(c2ccc(N)c(Cl)c2)c2cc3c(cc21)OCO3 (stereo unspecified); 7 µM

## Input // lookup IC50 for "CNC(=O)N1N=C(c2ccc(N)cc2)c2cc3c(cc2CC1=O)OCO3"
## Output 11 µM

## Input // lookup IC50 for "CNC(=O)N1N=C(c2ccc(N)cc2)c2cc3c(cc2CC1=O)OCCO3"
## Output 5.4 µM

## Input // lookup IC50 for "Cc1cc(C2=NNC(=O)Cc3cc4c(cc32)OCO4)ccc1N"
## Output 2.5 µM

## Input // lookup IC50 for CCC1C(=O)NN=C(c2ccc(N)cc2)c2cc3c(cc21)OCO3 (stereo unspecified)
## Output 17.1 µM

## Input // lookup IC50 for "Cc1cc(C2=NNC(=O)Cc3cc4c(cc32)OCCO4)cc(C)c1N"
## Output > 100 µM

---

# test-summary: Antagonist activity at AMPA receptor in rat […] granule cells assessed as inhibition of kainate-induced calcium uptake after 30 mins
# Assay type: functional, cell-based
# settings: 0.5 h
# pIC50 annotations
Value format note: pIC50 is -log10 of concentration (mol/L); just state the number.

Below, each entry is followed by its recorded pIC50 result.
COc1cc(C2=NNC(=O)Cc3cc4c(cc32)OCCO4)ccc1N; 4.92
CC1C(=O)NN=C(c2ccc(N)c(Cl)c2)c2cc3c(cc21)OCCO3 (stereo not drawn); 4.74

## Input // lookup pIC50 for CCC1C(=O)NN=C(c2ccc(N)c(C)c2)c2cc3c(cc21)OCO3 (stereo not drawn)
## Output 5.36

---

# pIC50 annotations
# test-summary: Antagonist activity at AMPA receptor in rat […] granule cells assessed as inhibition of kainate-induced calcium uptake after 30 mins
# Type: functional, cell-based
# settings: 0.5 h
Value format note: pIC50 is -log10 of concentration (mol/L); just state the number.

Below, each entry is followed by its recorded pIC50 result.
Cc1cc(C2=NNC(=O)C(C)c3cc4c(cc32)OCO4)ccc1N (stereo unspecified); 4.73
COc1cc(C2=NNC(=O)Cc3cc4c(cc32)OCO4)ccc1N; 4.51
Cc1cc(C2=NNC(=O)C(C)c3cc4c(cc32)OCCO4)ccc1N (stereo unspecified); 5.91
Nc1ccc(C2=NNC(=O)Cc3cc4c(cc32)OCCO4)cc1; 5.54
CNC(=O)N1N=C(c2ccc(N)cc2)c2cc3c(cc2C(C)C1=O)OCO3 (stereo unspecified); 4.80

## Input // lookup pIC50 for "CC1=NN=C(c2ccc(N)cc2)c2cc3c(cc2C1)OCO3"
## Output 4.66

## Input // lookup pIC50 for CC1C(=O)NN=C(c2ccc(N)cc2)c2cc3c(cc21)OCO3 (stereo unspecified)
## Output 4.92

## Input // lookup pIC50 for "Cc1cc(C2=NNC(=O)Cc3cc4c(cc32)OCCO4)ccc1N"
## Output 5.19

## Input // lookup pIC50 for "Nc1ccc(C2=NNC(=O)Cc3cc4c(cc32)OCO4)cc1"
## Output 4.92

## Input // lookup pIC50 for "Nc1ccc(C2=NNC(=O)Cc3cc4c(cc32)OCCO4)cc1Cl"
## Output 5.70
